These entries and their values trace back to PubChem BioAssay (NCATS).

SYSTEM TESTED: Peroxisome proliferator-activated receptor delta (Homo sapiens)
ASSAY PROCEDURE: qHTS assay for small molecule agonists of peroxisome proliferator-activated receptor delta signaling (AID 588534)
CONDITION DESCRIPTION: HEK293T PPARdelta-UAS-bla, beta-lactamase ratio, 18 h; series mostly up to 76.7 µM
Description: NIH Chemical Genomics Center [NCGC] U.S. Environmental Protection Agency [EPA] National Institutes of Environmental Health Sciences [NIEHS] National Toxicology Program [NTP] […] Compounds were screened in a titration series in 1536-well format. […] Detection; Fluorescence; Envision plate reader
Records with an inconclusive call do not appear. Calls of active or inactive are those of the source. The call rests on the fitted dose curve.
ASSAY READOUT: outcome

>  <COMPOUND>
ClC1C(Cl)C(Cl)C(Cl)C(Cl)C1Cl (stereo unspecified)

>  <ASSAY READOUT>
outcome

>  <OBSERVED RESULT>
inactive

$$$$
>  <COMPOUND>
CC(C)(C)c1cc(O)ccc1O

>  <ASSAY READOUT>
outcome

>  <OBSERVED RESULT>
inactive

$$$$
>  <COMPOUND>
[O]=[Cd]

>  <ASSAY READOUT>
outcome

>  <OBSERVED RESULT>
inactive

$$$$
>  <COMPOUND>
ClC=C(Cl)Cl

>  <ASSAY READOUT>
outcome

>  <OBSERVED RESULT>
inactive

$$$$
>  <COMPOUND>
N#CN

>  <ASSAY READOUT>
outcome

>  <OBSERVED RESULT>
inactive

$$$$
>  <COMPOUND>
C=CCN=C=S

>  <ASSAY READOUT>
outcome

>  <OBSERVED RESULT>
inactive

$$$$
>  <COMPOUND>
O=C1C2CC=CCC2C(=O)N1SC(Cl)(Cl)Cl (stereo unspecified)

>  <ASSAY READOUT>
outcome

>  <OBSERVED RESULT>
inactive

$$$$
>  <COMPOUND>
COCC(C)N(C(=O)CCl)c1c(C)csc1C (stereo unspecified)

>  <ASSAY READOUT>
outcome

>  <OBSERVED RESULT>
inactive

$$$$
>  <COMPOUND>
COc1ccc2c(c1OC)C(=O)OC2C1c2cc3c(cc2CCN1C)OCO3 (stereo unspecified)

>  <ASSAY READOUT>
outcome

>  <OBSERVED RESULT>
inactive

$$$$
>  <COMPOUND>
ClC(Cl)(Cl)Cl

>  <ASSAY READOUT>
outcome

>  <OBSERVED RESULT>
inactive

$$$$
>  <COMPOUND>
CCOP(=O)(OCC)O/C(=C/Cl)c1ccc(Cl)cc1Cl

>  <ASSAY READOUT>
outcome

>  <OBSERVED RESULT>
inactive

$$$$
>  <COMPOUND>
CCCCCCCCOC(=O)c1ccccc1C(=O)OCCCCCCCC

>  <ASSAY READOUT>
outcome

>  <OBSERVED RESULT>
inactive

$$$$
>  <COMPOUND>
CC(C)CCON=O

>  <ASSAY READOUT>
outcome

>  <OBSERVED RESULT>
inactive

$$$$
>  <COMPOUND>
O=C(O)C(Cl)(Cl)Cl

>  <ASSAY READOUT>
outcome

>  <OBSERVED RESULT>
inactive

$$$$
>  <COMPOUND>
CCCCCl

>  <ASSAY READOUT>
outcome

>  <OBSERVED RESULT>
inactive

$$$$
>  <COMPOUND>
O=[N+]([O-])c1ccccc1

>  <ASSAY READOUT>
outcome

>  <OBSERVED RESULT>
inactive

$$$$
>  <COMPOUND>
O=CC=O

>  <ASSAY READOUT>
outcome

>  <OBSERVED RESULT>
inactive

$$$$
>  <COMPOUND>
O=C1CCO1

>  <ASSAY READOUT>
outcome

>  <OBSERVED RESULT>
inactive

$$$$
>  <COMPOUND>
CCOC(=O)c1ccccc1C(=O)OCC

>  <ASSAY READOUT>
outcome

>  <OBSERVED RESULT>
inactive

$$$$
>  <COMPOUND>
CC(C)Nc1ccc(Nc2ccccc2)cc1

>  <ASSAY READOUT>
outcome

>  <OBSERVED RESULT>
inactive

$$$$
>  <COMPOUND>
NNC(N)=O

>  <ASSAY READOUT>
outcome

>  <OBSERVED RESULT>
inactive

$$$$
